- Tested on: SF-268 CNS
- experimentDescription: NCI-60 one-dose screen, 48 h (100 = growth as untreated, 0 = no growth, -100 = all killed)
- measurementConditions: 10 µM unless noted
This is part of a sample that, as a whole, favours compounds with a hit. Of some 83,000 tested, about 20% had one in any assay.

>  <smilesRepr>
O=C(O)c1ccc(-n2cc(/C=N/Nc3ccccc3F)c(-c3ccc(O)cc3)n2)cc1

>  <growth, %>
78.6

$$$$
>  <smilesRepr>
N#CC(C#N)=C(C#N)c1c[nH]c2ccccc12

>  <growth, %>
90.7

$$$$
>  <smilesRepr>
COc1ccc(Cl)cc1NC(=O)c1cc2c([nH]1)-c1nc(NC(=O)C(C)(C)C)sc1CC2

>  <growth, %>
45.3

$$$$
>  <smilesRepr>
O=C(Nc1ccc(Cl)c(Cl)c1)Nc1ccc(Cl)c([N+](=O)[O-])c1

>  <growth, %>
14.1

$$$$
>  <smilesRepr>
O=C(c1ccccc1)[C@H]1[C@@H]2CCCN2[C@]2(C(=O)Nc3ccc(F)cc32)[C@]12C(=O)Nc1ccccc12

>  <growth, %>
90.2

$$$$

----------
- System: SF-268 CNS
- experimentDescription: NCI-60 one-dose screen, 48 h (100 = growth as untreated, 0 = no growth, -100 = all killed)
- measurementConditions: 10 µM unless noted
Compounds without any hit were thinned out: in the full panel of roughly 83,000, 20% have a hit.
resultType: growth (%)

>  <molecule>
COc1ccc(NC(=O)Nc2ccc(-c3ccc(OC)c(OC)c3)nc2C)cc1

>  <measuredTarget>
SF-268 CNS

>  <val>
59.2

$$$$
>  <molecule>
O=C(Nc1cccc(-n2ccc3c(NC(=O)c4ccccc4)nccc32)c1)c1cccc(C(F)(F)F)c1

>  <measuredTarget>
SF-268 CNS

>  <val>
14.8

$$$$
>  <molecule>
CC(C)(C)NCC(O)COc1c(Br)c(Br)c(Br)c2c1OC(C)(C)C2 (configuration not stated)

>  <measuredTarget>
SF-268 CNS

>  <val>
4.14

$$$$
>  <molecule>
C#C[C@H](O)/C=C/CCCCCCC#C[C@H](O)CC[C@@H](O)C#CCCCCCC/C=C/[C@@H](O)C#C

>  <measuredTarget>
SF-268 CNS

>  <val>
85.1

$$$$
>  <molecule>
CC/C(=C(\CC)c1ccc(OCCN(CC)CC)cc1)c1ccc(OCCN(CC)CC)cc1

>  <measuredTarget>
SF-268 CNS

>  <val>
55.2

$$$$
>  <molecule>
COc1cc2ncnc(Oc3ccc(NC(=O)Nc4ccc(C5(C#N)CCCC5)cc4)c4ccccc34)c2cc1OC

>  <measuredTarget>
SF-268 CNS

>  <val>
27

$$$$
>  <molecule>
COc1ccc(/C=C/C(=O)c2ccc(NC(=O)CSc3nnc(-c4cc(OC)c(OC)c(OC)c4)o3)cc2)cc1

>  <measuredTarget>
SF-268 CNS

>  <val>
-76.7

$$$$
>  <molecule>
Nc1nc(=S)ss1

>  <measuredTarget>
SF-268 CNS

>  <val>
108

$$$$
>  <molecule>
C=CCOc1ccc(/C(Cl)=N/N=C(\Cl)c2cc(OC)c(OC)c(OC)c2)cc1

>  <measuredTarget>
SF-268 CNS

>  <val>
85.5

$$$$
>  <molecule>
CC(/C=C/C=C(\C)[C@H](O)[C@H](C)C(=O)O[C@H]1C[C@H](C)C=C2C=C[C@@]3(C)O[C@@H](O)CC(=O)[C@]3(C)[C@H]21)=C\C=C\C(=O)O

>  <measuredTarget>
SF-268 CNS

>  <val>
7.59

$$$$
>  <molecule>
COc1cc(Cn2cc3c(c2)-c2onc(CO)c2CC3)cc(OC)c1OC

>  <measuredTarget>
SF-268 CNS

>  <val>
96

$$$$
>  <molecule>
CCCC(=O)Oc1ccc(/C(=C(\C)c2ccc(Cl)cc2)c2ccc(OCCN(CC)CC)cc2)cc1

>  <measuredTarget>
SF-268 CNS

>  <val>
-9.12

$$$$
>  <molecule>
O=C(Nc1ccc(-n2cc(-c3ccncc3)c(-c3ccc(O)c(Cl)c3)n2)cc1)Nc1cc(C(F)(F)F)cc(C(F)(F)F)c1

>  <measuredTarget>
SF-268 CNS

>  <val>
70.8

$$$$
>  <molecule>
CC[C@@]1(O)C(=O)OCc2c1cc1n(c2=O)Cc2c-1nc1ccccc1c2/C=N/OC(C)(C)C

>  <measuredTarget>
SF-268 CNS

>  <val>
2.41

$$$$
>  <molecule>
COc1ccc(Cl)cc1NC(=O)c1cc2c([nH]1)-c1nc(N)sc1CCC2

>  <measuredTarget>
SF-268 CNS

>  <val>
98.2

$$$$
>  <molecule>
COc1cc(CN(c2ccc(Cl)cc2)C2OC(=O)c3ccccc32)cc(OC)c1OC (configuration not stated)

>  <measuredTarget>
SF-268 CNS

>  <val>
67.8

$$$$
>  <molecule>
O=C(NCCNc1nccc(-c2c(-c3cccc(O)c3)nc3sccn23)n1)Nc1cc(C(F)(F)F)cc(C(F)(F)F)c1

>  <measuredTarget>
SF-268 CNS

>  <val>
69.4

$$$$

----------
- System: SN12C renal
- experimentDescription: NCI-60 one-dose screen, 48 h (100 = growth as untreated, 0 = no growth, -100 = all killed)
- measurementConditions: 10 µM unless noted
Compounds without any hit were thinned out: in the full panel of roughly 83,000, 20% have a hit.

>  <compound>
O=C(Nc1ccc(-n2cc(-c3ccncc3)c(-c3ccc(O)c(Cl)c3)n2)cc1)Nc1cccc(Cl)c1Cl

>  <measuredTarget>
SN12C renal

>  <unitsLabel>
%

>  <growth>
83.1

$$$$
>  <compound>
CN(C)c1ncc(C#Cc2c(F)cccc2F)c2ccccc12

>  <measuredTarget>
SN12C renal

>  <unitsLabel>
%

>  <growth>
78.8

$$$$
>  <compound>
COc1ccc(-c2nnc(SCC(=O)Nc3ccc(C(=O)/C=C/c4ccccc4)cc3)o2)cc1OC

>  <measuredTarget>
SN12C renal

>  <unitsLabel>
%

>  <growth>
103

$$$$
>  <compound>
CC(C)NCC(O)COc1ccc(CC(N)=O)cc1 (centres undefined)

>  <measuredTarget>
SN12C renal

>  <unitsLabel>
%

>  <growth>
104

$$$$
>  <compound>
Cc1ccc(NC(=O)CN2CCOCC2)cc1Cl

>  <measuredTarget>
SN12C renal

>  <unitsLabel>
%

>  <growth>
93.1

$$$$
>  <compound>
O=C(NCCNc1nccc(-c2c(-c3cccc(O)c3)nc3sccn23)n1)c1ccc(N2CCOCC2)c(C(F)(F)F)c1

>  <measuredTarget>
SN12C renal

>  <unitsLabel>
%

>  <growth>
76

$$$$
>  <compound>
Cc1ccc(-c2cn3cc([N+](=O)[O-])ccc3n2)cc1

>  <measuredTarget>
SN12C renal

>  <unitsLabel>
%

>  <growth>
75.3

$$$$
>  <compound>
COc1ccc(/C=N/C2=NNC(C)(c3ccccc3O)N2C(Cc2c[nH]c3ccccc23)C(=O)O)cc1 (centres undefined)

>  <measuredTarget>
SN12C renal

>  <unitsLabel>
%

>  <growth>
34.4

$$$$
>  <compound>
COc1ccc2c(c1)OC(N)=C(C#N)C2c1ccc(F)cc1 (centres undefined)

>  <measuredTarget>
SN12C renal

>  <unitsLabel>
%

>  <growth>
43.8

$$$$
>  <compound>
Cc1nccc2c3ccc(OCc4cn(-c5ccc(Br)cc5)nn4)cc3n(CCCc3ccccc3)c12

>  <measuredTarget>
SN12C renal

>  <unitsLabel>
%

>  <growth>
66.9

$$$$
>  <compound>
S=c1ssnc1-c1ccccn1

>  <measuredTarget>
SN12C renal

>  <unitsLabel>
%

>  <growth>
38

$$$$
>  <compound>
COC(=O)c1oc2c(C(=O)/C=C/c3ccc(OC)cc3)c(OCCN3CCOCC3)ccc2c1C

>  <measuredTarget>
SN12C renal

>  <unitsLabel>
%

>  <growth>
17.5

$$$$
>  <compound>
Cc1c(F)cccc1NC(=O)c1sc2nc3c(cc2c1N)CCCCC3

>  <measuredTarget>
SN12C renal

>  <unitsLabel>
%

>  <growth>
84.6

$$$$
>  <compound>
COc1ccc(/C=C/C(=O)c2ccc(Oc3ncnc4ccccc34)cc2)cc1OC

>  <measuredTarget>
SN12C renal

>  <unitsLabel>
%

>  <growth>
79

$$$$

----------
- System: SK-MEL-2 melanoma
- experimentDescription: NCI-60 one-dose screen, 48 h (100 = growth as untreated, 0 = no growth, -100 = all killed)
- measurementConditions: 10 µM unless noted
The panel holds about 83,000 compounds, 20% with a hit somewhere; the sample as a whole holds those more often. Calls of active or inactive are those of the source. The calls were made as follows: active = growth percent below 10; inactive = the rest.
Measured growth by item
resultType: growth

>  <compound>
CCC1(C(N)=O)CC2C=CC1CC2 (stereo not drawn)

>  <resultType>
growth

>  <val>
124% (inactive)

$$$$
>  <compound>
CCC(N)(C(=O)O)c1ccc(F)cc1 (stereo not drawn)

>  <resultType>
growth

>  <val>
98% (inactive)

$$$$
>  <compound>
COc1ccc(/C=C/C(=O)c2ccc(-n3cc(CN4CCN(c5cc6c(cc5F)c(=O)c(C(=O)O)cn6C5CC5)CC4)nn3)cc2)cc1OC

>  <resultType>
growth

>  <val>
97.4% (inactive)

$$$$
